- Procedure text: Plasma pharmacokinetics in MCAO/R rats after iv IMM-H004 citrate
- Type: in vivo
- Experimental parameters: rat, iv IMM-H004 citrate 10 mg/kg
Outcome measure: AUC(0-t)

>  <Compound>
COc1cc(O)cc2oc(=O)c(N3CCN(C)CC3)c(C)c12

>  <Outcome measure>
AUC(0-t)

>  <Reported value>
1640 ng·h/mL

$$$$
>  <Compound>
COc1cc(OC2OC(C(=O)O)C(O)C(O)C2O)cc2oc(=O)c(N3CCN(C)CC3)c(C)c12 (centres unmarked) [IMM-H004G]

>  <Outcome measure>
AUC(0-t)

>  <Reported value>
28900 ng·h/mL

$$$$
